Listed compounds paired with reported activity
# TEST PROTOCOL: caspase-8 TRAIL sensitization, hit retest, confirmation, cell-based, NB7+caspase-8, with/without TRAIL, luminescence panel (AID 651596)
# TEST CONTEXT: NB7 neuroblastoma + caspase-8, without TRAIL, luminescence viability, without TRAIL, mean of runs, at 10 µM
Supply the numeric figure in %, leaving out any unit text.

Solved entries:
1) O=C(Cc1ccsc1-c1ccccc1)NO	72.3
2) O=C(Nc1ccc(Cl)cn1)c1ccc2c(Cl)c3c(nc2c1)CCC3	56.3
3) CC(C)C[C@H](NC(=O)c1nc[nH]c1C(=O)N[C@@H](CC(C)C)C(=O)OC(C)(C)C)C(=O)OC(C)(C)C	63.2
4) COc1cccc(/C=C/c2ccc3ccccc3n2)c1OC(C)=O	60.8
5) O=C(NC(=S)Nc1nc2ccccc2s1)c1ccco1	64.4

Read off the recorded activity for `Cc1ccc(N(Cc2cc(=O)[nH]c3ccccc23)C(=O)CCl)c(C)c1`
96.5

Read off the recorded activity for `CCCCCCc1cc2cc(C(=O)Nc3ccccc3)c(=O)oc2cc1O`
65.2

Read off the recorded activity for `CCN(Cc1ccccc1)S(=O)(=O)c1ccc(C(=O)N(CCCN(C)C)c2nc3cc(C)cc(C)c3s2)cc1`
-11.7

Read off the recorded activity for `c1ccc2nc(-c3nc4ccccc4o3)ccc2c1`
76

Read off the recorded activity for `Cc1ccc2nc(NC(=O)c3ccc(-c4nc5ccccc5s4)s3)sc2c1`
17

Read off the recorded activity for Cc1csc(C(C#N)C(=O)c2cc3ccccc3o2)n1 (centres undefined)
61.2

Read off the recorded activity for `O=C(CCl)Nc1c(C(=O)Nc2ccc3c(c2)OCCO3)oc2ccccc12`
90.3

* * *

# TARGET UNDER TEST: PEG-3 (UniProt Q6IN02)
# Sequence (Q6IN02 whole entry, looked up): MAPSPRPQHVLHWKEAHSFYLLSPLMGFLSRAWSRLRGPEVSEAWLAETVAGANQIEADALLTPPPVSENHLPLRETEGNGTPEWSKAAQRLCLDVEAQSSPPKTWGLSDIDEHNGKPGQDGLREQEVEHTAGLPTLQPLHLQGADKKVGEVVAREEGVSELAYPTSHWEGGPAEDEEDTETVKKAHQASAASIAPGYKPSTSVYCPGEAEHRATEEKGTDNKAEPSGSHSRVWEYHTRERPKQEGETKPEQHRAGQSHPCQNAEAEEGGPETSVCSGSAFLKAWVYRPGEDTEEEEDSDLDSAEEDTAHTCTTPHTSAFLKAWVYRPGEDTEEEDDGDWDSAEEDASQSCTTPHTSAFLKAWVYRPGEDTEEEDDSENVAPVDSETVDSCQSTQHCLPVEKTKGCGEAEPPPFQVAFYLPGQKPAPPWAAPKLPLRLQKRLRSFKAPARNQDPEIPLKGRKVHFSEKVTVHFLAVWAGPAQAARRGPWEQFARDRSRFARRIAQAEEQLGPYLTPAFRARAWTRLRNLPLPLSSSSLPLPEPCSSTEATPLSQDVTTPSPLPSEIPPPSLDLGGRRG
# TEST PROTOCOL: Peg3 promoter luciferase inhibitors, potency, dose response, cell-based, HeLa, CREF/GAPDH counter-screen panel (AID 624167)
# TEST CONTEXT: CREF/GAPDH counter-screens; HeLa PEG-Prom luciferase reporter, overnight, run 2, dose range 1, at 100 µM (top of the series) unless noted
VALUE TYPE: inhibition

Solved entries:
1. Cc1ccc(C)c(CN2CCC(CNC(=O)Nc3ccc(F)c(Cl)c3)CC2)c1	101%
2. CCOc1cc(/C=N/Nc2nc(-c3cccc(S(=O)(=O)N4CCCC4)c3)cs2)ccc1O	95.5%
3. O=C(Nc1ccccc1N1CCOCC1)c1cc(-c2ccncc2)nc2ccccc12	88%
4. CN(Cc1ccccc1)C(=O)c1ccc(Nc2nc(C(N)Cc3ccccc3)cs2)nc1 (stereo not given)	101%

Now consider the entry below.
Read off the recorded inhibition for O=S(=O)(CC(CN1CCCCC1)N1CCCCC1)c1ccccc1 (stereo not given)
102%

* * *

# TARGET UNDER TEST: Tumor necrosis factor receptor superfamily member 10B (Homo sapiens) (UniProt O14763)
# Sequence (O14763 whole entry, looked up): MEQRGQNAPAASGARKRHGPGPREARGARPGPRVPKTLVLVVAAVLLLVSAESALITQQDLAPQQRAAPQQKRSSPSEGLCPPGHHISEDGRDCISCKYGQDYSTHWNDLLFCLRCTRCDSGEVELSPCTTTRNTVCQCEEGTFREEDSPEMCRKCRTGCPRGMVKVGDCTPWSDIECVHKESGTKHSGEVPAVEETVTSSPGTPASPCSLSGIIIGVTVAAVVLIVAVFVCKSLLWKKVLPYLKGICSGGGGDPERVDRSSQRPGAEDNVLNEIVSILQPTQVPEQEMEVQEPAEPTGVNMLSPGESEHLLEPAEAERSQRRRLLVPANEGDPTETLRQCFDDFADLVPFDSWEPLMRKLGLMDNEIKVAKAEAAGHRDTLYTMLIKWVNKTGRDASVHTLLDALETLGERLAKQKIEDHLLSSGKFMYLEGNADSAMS
# TEST PROTOCOL: caspase-8 TRAIL sensitization, hit retest, confirmation, cell-based, NB7+caspase-8, with/without TRAIL, luminescence panel (AID 651596)
# TEST CONTEXT: NB7 neuroblastoma + caspase-8, TRAIL sensitization, luminescence viability, with TRAIL, mean of runs, at 10 µM, stronger effect = higher value
VALUE TYPE: activity (%)
Supply the numeric figure in %, leaving out any unit text.

1) O=C(Nc1cnn(C23CC4CC(CC(C4)C2)C3)c1)c1cnn2c(C(F)(F)F)cc(-c3ccco3)nc12	76.4
2) Oc1ccc(-c2cnc(-c3ccc(O)cc3)nc2)cc1	88.2
3) Cc1cc(C(=O)Nc2sc3c(c2C#N)CCC(C)C3)no1 (stereo not drawn)	58.6
4) Cc1cc(C)cc(C(=O)Nc2nc3ccccc3[nH]2)c1	78.7
5) CC(C)(C)NCCC(O)c1cc(C(F)(F)F)nc2c(C(F)(F)F)cccc12 (stereo not drawn)	97.5

Read off the recorded activity for `CC(C)(C)C(=O)Nc1ccc(NC(=O)c2ccco2)nc1`
98.7

* * *

# TARGET UNDER TEST: Tumor necrosis factor receptor superfamily member 10B (Homo sapiens) (UniProt O14763)
# TEST PROTOCOL: caspase-8 TRAIL sensitization, hit retest, confirmation, cell-based, NB7+caspase-8, with/without TRAIL, luminescence panel (AID 651596)
# TEST CONTEXT: NB7 neuroblastoma + caspase-8, TRAIL sensitization, luminescence viability, with TRAIL, mean of runs, at 10 µM, stronger effect = higher value
Listed compounds paired with reported activity
Write the figure, then the unit, nothing else.

Solved entries:
1. Cc1cc(NC(=O)c2cncc(Br)c2)ccc1NC(=O)c1cc2ccccc2o1	58.9%
2. Cn1cc([N+](=O)[O-])c(C(=O)Nc2nc(-c3ccc(Cl)cc3)cs2)n1	97.3%
3. CN1CCN(Cc2nc3ccccc3c(=O)n2Cc2nc(-c3ccc4ccccc4c3)cs2)CC1	67.3%
4. O=C(Nc1ccc(NC(=O)C2CCCCC2)cn1)c1ccco1	76.2%
5. Cc1nn(-c2ccccc2)c(C)c1/C=N/NC(=O)c1cc(-c2ccc(Cl)s2)[nH]n1	70.1%

Check Tumor necrosis factor receptor superfamily member 10B (Homo sapiens) (UniProt O14763) data and give activity for `Cc1ccc2nc(NC(=O)c3cccs3)sc2c1` .
72.1%

Check Tumor necrosis factor receptor superfamily member 10B (Homo sapiens) (UniProt O14763) data and give activity for `COc1ccc(-c2sc3ccccc3c2-c2ccc(OCCN(C)C)cc2)cc1` .
52.4%

Check Tumor necrosis factor receptor superfamily member 10B (Homo sapiens) (UniProt O14763) data and give activity for COc1ccc(C2CC(c3cccs3)=NN2C(=O)CCl)cc1OC (stereo not given) .
98.7%

Check Tumor necrosis factor receptor superfamily member 10B (Homo sapiens) (UniProt O14763) data and give activity for `O=C(Nc1ccc(N2CCOCC2)cc1)c1csc(COCCO)n1` .
54.5%

Check Tumor necrosis factor receptor superfamily member 10B (Homo sapiens) (UniProt O14763) data and give activity for `CCOC(=O)c1c(CSC(=N)N)n(-c2ccc(C)cc2)c2cc(Br)c(OC(C)=O)cc12` .
90.7%

* * *

# TEST PROTOCOL: inhibitors of PAF-induced NFkB signaling in CF airway cells, dose response, cell-based, uHTS hits, panel, cytotoxicity readout (AID 624344)
# TEST CONTEXT: CF bronchial epithelial cells, PAF-induced NFkB reporter inhibition, with PAF, run 2; at 79 µM (top of the series) unless noted
VALUE TYPE: inhibition (%)
Supply the numeric figure in %, leaving out any unit text.

Solved entries:
1. COc1cccc(Nc2ncnc3ccc(Br)cc23)c1	105
2. Cc1cnc(NC(=O)C2CC(=O)N(c3cccc(Cl)c3)C2)s1 (stereo not drawn)	116

Now consider the entry below.
Read off the recorded inhibition for `Cc1ccsc1CN(C)c1ncnc2ccc(-c3ccoc3)cc12`
93.8

* * *

# TARGET UNDER TEST: Caspase-3 (Homo sapiens)
# TEST PROTOCOL: caspase-3 protease inhibitors, confirmation, selectivity assay for SENP inhibitor project, biochemical, single concentration (AID 488918);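 further: plate controls were enzyme with DMSO for no effect and wells without caspase-3 for full effect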
# TEST CONTEXT: purified caspase-3, Z-DEVD-aminoluciferin luminescence, 60 min; at 12.5 µM; stronger effect = higher value
The other results are listed elsewhere or left out.
Listed compounds paired with reported inhibition
Supply the numeric figure in %, leaving out any unit text.

Solved entries:
1. O=c1c2c(nc3n1CCCCC3)sc1c(O)cccc12	59.4
2. COc1ccc(C(=O)/C=C/Nc2ccccn2)cc1	97
3. COc1ccc(-c2nc(-c3ccccc3)no2)c(OC)c1	98.1
4. COc1cc(C#Cc2ccc3cc(CCCO)oc(=O)c3c2)cc(OC)c1	42.7
5. COc1ccc(-c2cn3ccc(C)cc3n2)cc1	95.2
6. O=C(Nc1cccnc1Cl)c1cc(-c2ccccc2O)on1	8

Read off the recorded inhibition for `Cc1ccc(O)c(CNc2nc3ccccc3n2C)c1`
8.9

Read off the recorded inhibition for O=C(Nc1ccc(C2CC2(Cl)Cl)cc1)c1cccc([N+](=O)[O-])c1 (configuration not stated)
36.1

Read off the recorded inhibition for `Cc1cc(C(=O)N/N=C/c2ccc(N3CCOCC3)cc2)c(C)o1`
95.4

Read off the recorded inhibition for `CCOc1ccc(-c2nnc(-c3ccco3)o2)cc1`
73.8

* * *

# TEST PROTOCOL: caspase-8 TRAIL sensitization, hit retest, confirmation, cell-based, NB7+caspase-8, with/without TRAIL, luminescence panel (AID 651596)
# TEST CONTEXT: NB7 neuroblastoma + caspase-8, without TRAIL, luminescence viability, without TRAIL, mean of runs, at 10 µM
The label is y for activity below 70% and n for activity equal to or exceeding 70%.

1) CCOC(=O)CSc1nc2cc(OC)ccc2cc1C#N	n

Now turn to the next compound.
Regarding `CCOc1cccc2sc(N(CCCN(C)C)C(=O)c3ccc(S(=O)(=O)N4CCc5ccccc5C4)cc3)nc12` , kindly confirm whether its activity is beneath 70%.
n

* * *

# TEST PROTOCOL: inhibitors of PAF-induced NFkB signaling in CF airway cells, dose response, cell-based, uHTS hits, panel, cytotoxicity readout (AID 624344)
# TEST CONTEXT: CF bronchial epithelial cells, PAF-induced NFkB reporter inhibition, with PAF, run 2; at 79 µM (top of the series) unless noted
VALUE TYPE: inhibition (%)
Supply the numeric figure in %, leaving out any unit text.

Solved entries:
1) COc1ccc(-c2cn[nH]c2-c2ccc(OCc3ccccc3F)cc2O)cc1OC	98.3
2) O=C(c1cc([N+](=O)[O-])ccc1N1CCOCC1)N1CCN(c2ccccc2)CC1	79.6
3) COc1ccc2c(=O)cc(-c3ccncc3)oc2c1OC	103
4) CCC(C)Oc1cc(-c2ccnc(Nc3cccc(Cl)c3)n2)ccn1 (stereo unspecified)	117
5) Clc1cccc(Nc2ncnc3ccc(Br)cc23)c1	104

Read off the recorded inhibition for `COc1ccc(-c2cnc3c(NC=O)cc(-c4ccc(C(=O)N5CCOCC5)cc4)cn23)cc1OC`
99

Hey, just so you know, these numbers are from PubChem BioAssay.
